Target System: HER2 (Homo sapiens (Human), UniProt P04626 23-652)
Experiment Notes: phage ELISA, A450 target/A450 IgG1-Fc
Checkbox rule: ELISA_avg lower than 6 ratio = 1.0; ELISA_avg not lower than 6 ratio = 0.0.

Binder | Assigned Class
SEQ ID NO 937 (designed binder) MGSWTEFWWRLSAIVYRLNALGGSEAELAAFEKEIAAFESELQAYKGKGNPEVEELRDMAADIRSLLQAYRHN | 1.0
SEQ ID NO 942 (designed binder) MGSWWEFQVRLAAIEYRLKALGGSEAELAAFEKEIAAFESELQAYKGKGNPEVENLRQLAAHIRSVLQAYRHN | 0.0
SEQ ID NO 911 (designed binder) MGSWHEFRWRLFAIWQRLHALGGSEAELAAFEKEIAAFESELQAYKGKGNPEVEWLRLDAALIRVMLQAYRHN | 0.0
SEQ ID NO 922 (designed binder) MGSWWGFKVNLAWIKWKLEALGGSEAELAYFELWIANFEHSLQEYKGKGNPEVEALRKEAAAIRDELQAYRHN | 0.0
SEQ ID NO 928 (designed binder) MGSWWEFQVRLRAIQYRLNALGGSEAELAAFEKEIAAFESELQAYKGKGNPEVEYLRGLAAQIRFDLQAYRHN | 0.0

API: query returns whether the binder falls strictly under 6 ratio in ELISA_avg. Query: SEQ ID NO 950 (designed binder) MGSWWEFNMRLSAIKYRLYALGGSEAELAAFEKEIAAFESELQAYKGKGNPEVEILRRLAADIRERLQAYRHN
1.0
